- System: EKVX
- PROCEDURE DETAILS: NCI tumour cell line growth inhibition, 48 h
Calls of active or inactive are those of the source. Cut-off read from the data, not from the text of the source: active = GI50 up to about 1.1 µM and inactive = higher.
Possible outcomes: YES for active, NO for inactive

{"MOLECULE": "CC(C)C(=O)/C=C/S/C=C/C(=O)C(C)C", "TEST SYSTEM": "EKVX", "CATEGORY LABEL": "NO"}
{"MOLECULE": "CCOC(OC1=C(C#N)CCC1)C(CC)[Se]c1ccccc1 (stereo not drawn)", "TEST SYSTEM": "EKVX", "CATEGORY LABEL": "NO"}
{"MOLECULE": "Nc1ccc(-c2nc3ccccc3s2)cc1Cl", "TEST SYSTEM": "EKVX", "CATEGORY LABEL": "NO"}
{"MOLECULE": "NCCCCNC1(c2cc3ccccc3s2)CCCCC1", "TEST SYSTEM": "EKVX", "CATEGORY LABEL": "NO"}
{"MOLECULE": "Cc1cc(S(=O)(=O)[N-]/C(=N/S(=O)(=O)c2cc(Cl)sc2Cl)[n+]2ccc(N(C)C)cc2)c(S)cc1Cl", "TEST SYSTEM": "EKVX", "CATEGORY LABEL": "NO"}
{"MOLECULE": "CN(CCc1ccccn1)c1ccc2c(c1)Cc1ccccc1-2", "TEST SYSTEM": "EKVX", "CATEGORY LABEL": "NO"}
{"MOLECULE": "Cc1ccccc1-c1nc2c(N)nc(N)nc2nc1N", "TEST SYSTEM": "EKVX", "CATEGORY LABEL": "NO"}
{"MOLECULE": "N=C(N)N/N=C/c1c(-c2ccc(Cl)cc2)nc2sccn12", "TEST SYSTEM": "EKVX", "CATEGORY LABEL": "NO"}
{"MOLECULE": "O=C(O)/C(Cl)=C(/Cl)C(=O)Nc1cccc(Cl)c1", "TEST SYSTEM": "EKVX", "CATEGORY LABEL": "NO"}
{"MOLECULE": "COc1cc(C2C3=C(COC3=O)Oc3cc4c(cc32)OCO4)cc(OC)c1O (stereo not drawn)", "TEST SYSTEM": "EKVX", "CATEGORY LABEL": "YES"}
{"MOLECULE": "C[C@@H](CN1CC(=O)NC(=O)C1)N1CC(=O)NC(=O)C1", "TEST SYSTEM": "EKVX", "CATEGORY LABEL": "NO"}
{"MOLECULE": "CC1=Nn2c(nnc2-c2ccccc2Cl)NC(C)(C)C1", "TEST SYSTEM": "EKVX", "CATEGORY LABEL": "NO"}
{"MOLECULE": "CCN1CCCCC(=N\\O)/C(=N/O)CCCC1", "TEST SYSTEM": "EKVX", "CATEGORY LABEL": "NO"}
{"MOLECULE": "C[C@]12CCC(=O)C=C1CC[C@@H]1C2CC[C@@]2(C)C1CC[C@@H]2OC(=O)C12OC1CCC2=O (stereo partly drawn)", "TEST SYSTEM": "EKVX", "CATEGORY LABEL": "NO"}
{"MOLECULE": "CC1CNC(c2ccc(COc3ccc(C4=NC(C)CN4)cc3)cc2)=N1 (stereo not drawn)", "TEST SYSTEM": "EKVX", "CATEGORY LABEL": "NO"}
{"MOLECULE": "NC(=O)N/N=C1/c2ccccc2-n2nccc21", "TEST SYSTEM": "EKVX", "CATEGORY LABEL": "NO"}
{"MOLECULE": "CC(C)C(C/C=C1/CC(CO)(COC(=O)CC(C(C)C)C(C)C)OC1=O)C(C)C (stereo not drawn)", "TEST SYSTEM": "EKVX", "CATEGORY LABEL": "NO"}
{"MOLECULE": "CC(=O)c1c(C)[n+]([O-])c2cc(Cl)c(Cl)cc2[n+]1[O-]", "TEST SYSTEM": "EKVX", "CATEGORY LABEL": "NO"}
{"MOLECULE": "CCOC(=O)c1cc(NC(=O)N(CCC#N)CCN(C(=O)N[C@@H](Cc2ccccc2)C(=O)N[C@@H](CC(C)C)C(=O)NC)c2ccccc2)ccc1OC", "TEST SYSTEM": "EKVX", "CATEGORY LABEL": "NO"}
{"MOLECULE": "c1csc(-c2ccc(-c3ccc(-c4ccc(-c5cccs5)s4)s3)s2)c1", "TEST SYSTEM": "EKVX", "CATEGORY LABEL": "NO"}
{"MOLECULE": "Cc1n[nH]c(=O)n1/N=C/c1cccs1", "TEST SYSTEM": "EKVX", "CATEGORY LABEL": "NO"}
{"MOLECULE": "O/N=C/[C@H]1COC2(CCCCC2)O1", "TEST SYSTEM": "EKVX", "CATEGORY LABEL": "NO"}
{"MOLECULE": "[O-][n+]1c2cccc(O)c2[n+]([O-])c2cccc(O)c21", "TEST SYSTEM": "EKVX", "CATEGORY LABEL": "NO"}

* * *

- Tested on: EKVX
- PROCEDURE DETAILS: NCI tumour cell line growth inhibition, 48 h
Calls of active or inactive are those of the source. Rule as the data show it: active = GI50 up to about 1.1 µM and inactive = higher.
Labels: 1 (yes) = active, 0 (no) = inactive

{"COMPOUND": "Clc1ccc(N/N=C(\\c2ccccc2)c2ccccn2)nc1", "CATEGORY LABEL": "1 (yes)"}
{"COMPOUND": "Cc1ccc(N/N=C/C2=CC(C)(C)C(C#N)(C#N)C(O)=C2C#N)cc1", "CATEGORY LABEL": "0 (no)"}
{"COMPOUND": "C[n+]1c2ccc(Cl)cc2nc2cc(-c3ccccc3)ccc21", "CATEGORY LABEL": "0 (no)"}
{"COMPOUND": "CC(=O)NC1C(CO)O[C@@H]2OC(C)(C)O[C@H]12 (stereo not given in full)", "CATEGORY LABEL": "0 (no)"}
{"COMPOUND": "c1ccc(-c2sc(-c3ccccc3)c3c2C2CCC3C2)cc1", "CATEGORY LABEL": "0 (no)"}
{"COMPOUND": "CN(C)c1ccc(/C=C(\\NC(=O)c2ccccc2)C(=O)NC(CCC(=O)O)C(=O)O)cc1 (stereo not given)", "CATEGORY LABEL": "0 (no)"}
{"COMPOUND": "C=C1C(=O)C23CC1C[C@H](OC(C)=O)C2C1(C)C(OC(C)=O)C[C@H](O)C(C)(C)[C@H]1C(O)[C@@H]3OC(C)=O (stereo not given in full)", "CATEGORY LABEL": "0 (no)"}
{"COMPOUND": "CCOc1cc2oc(C)cc(=O)c2c(OC)c1/C=N/c1ccc(Cn2c(C)nc3ccccc32)cc1", "CATEGORY LABEL": "0 (no)"}
{"COMPOUND": "CCOC(=O)C(O)Cc1cnc2ccccc2n1 (stereo not given)", "CATEGORY LABEL": "0 (no)"}
{"COMPOUND": "CC(C)C(=O)N1C(=O)O[C@@H](c2ccccc2)[C@H]1C", "CATEGORY LABEL": "0 (no)"}

* * *

- Test system: SW-620
- PROCEDURE DETAILS: NCI tumour cell line growth inhibition, 48 h
Activity calls are given as the source filed them. Cut-off read from the data, not from the text of the source: active = GI50 up to about 1.1 µM and inactive = higher.
Possible outcomes: active, inactive

{"COMPOUND": "COc1ccc2nc3c(nc2c1)C(C)(C)C=C3c1ccc(Br)cc1", "CATEGORY LABEL": "inactive"}
{"COMPOUND": "Cc1ccc(NCCN(C)C)c2c(=O)c3cc(O)ccc3sc12", "CATEGORY LABEL": "inactive"}
{"COMPOUND": "CC(C)(C)COS(=O)OCC(C)(C)C", "CATEGORY LABEL": "inactive"}
{"COMPOUND": "Cc1ccc(N/N=C/C2=CC(C)(C)C(C#N)(C#N)C(O)=C2C#N)cc1", "CATEGORY LABEL": "inactive"}
{"COMPOUND": "COCOCC1CCCN1CN1CCC[C@H]1COCOC (stereo not given in full)", "CATEGORY LABEL": "inactive"}
{"COMPOUND": "CN(CCc1ccccn1)c1ccc2c(c1)Cc1ccccc1-2", "CATEGORY LABEL": "inactive"}
{"COMPOUND": "Cc1[nH]c2ncn3ncnc3c2c1Cc1ccccc1", "CATEGORY LABEL": "inactive"}
{"COMPOUND": "CC(C)=CCNc1ncnc2c1ncn2CCC(=O)O", "CATEGORY LABEL": "inactive"}
{"COMPOUND": "NCCCCNC1(c2cc3ccccc3s2)CCCCC1", "CATEGORY LABEL": "inactive"}
{"COMPOUND": "C=C[C@@H](C)[C@H](NS(=O)(=O)c1ccc(C)cc1)C(=O)OCC", "CATEGORY LABEL": "inactive"}
{"COMPOUND": "O=C(/C=C/c1ccccc1)Oc1ccc(C(=O)/C=C/c2ccc(Cl)cc2)cc1", "CATEGORY LABEL": "inactive"}
{"COMPOUND": "Clc1ccc(CCN(CCc2ccc(Cl)c(Cl)c2)CCN2CCCC2)cc1Cl", "CATEGORY LABEL": "inactive"}
{"COMPOUND": "CC1CC(C)CC(C)C(O)/C(C#N)=C/C=C/CC(C2CCCC2C(=O)O)OC(=O)CC(O)C(C)C1 (stereo not given)", "CATEGORY LABEL": "active"}
{"COMPOUND": "O=C(O)C[n+]1cn(NC(=O)Cc2ccccc2)cn1", "CATEGORY LABEL": "inactive"}
{"COMPOUND": "N=C(N)N/N=C/c1c(-c2ccc(Cl)cc2)nc2sccn12", "CATEGORY LABEL": "inactive"}
{"COMPOUND": "CCOC(=O)c1nc2ccc(OC)cc2c2c1Cc1ccccc1-2", "CATEGORY LABEL": "inactive"}
{"COMPOUND": "CCNC(=S)NNC(=O)c1ccccc1Nc1ccccc1C(=O)NNC(=S)NCC", "CATEGORY LABEL": "inactive"}
{"COMPOUND": "CCn1cc(C(=O)O)c(=O)c2cc3c(cc21)S(=O)(=O)CC3", "CATEGORY LABEL": "inactive"}
{"COMPOUND": "CCOC(=O)C1(C(=O)OCC)C[C@@H](C)[C@@H](O)C1", "CATEGORY LABEL": "inactive"}
{"COMPOUND": "CC1=NN(C(=O)CC(=O)NC(=O)/C=C\\c2ccccc2)C(=O)C1/N=N/c1ccc([N+](=O)[O-])cc1 (stereo not given)", "CATEGORY LABEL": "inactive"}
{"COMPOUND": "Cc1nc(-n2nc(-c3ccccc3)cc2-c2ccccc2)sc1C(=O)/C=C/c1ccc(Cl)cc1", "CATEGORY LABEL": "inactive"}
{"COMPOUND": "CC(C)/C(Cl)=N/OC(=O)Nc1ccc(Cl)c(Cl)c1", "CATEGORY LABEL": "inactive"}
{"COMPOUND": "CC(=O)c1cccc2c1CC1(C2)Cc2ccc3c(c2C1=O)CCC3 (stereo not given)", "CATEGORY LABEL": "inactive"}
{"COMPOUND": "CCOC(=O)c1cccc(NC(=O)CBr)c1", "CATEGORY LABEL": "active"}
{"COMPOUND": "CCOP(=O)(OCC)/C(C#N)=C(\\C)c1ccco1", "CATEGORY LABEL": "inactive"}
{"COMPOUND": "CCCCCC1CC=CC(NC(=O)OCc2ccccc2)C1/C=C/CCCC1OCCO1 (stereo not given)", "CATEGORY LABEL": "inactive"}
{"COMPOUND": "O=C(O)C[C@@H](Cl)[C@H](NC(=O)OCc1ccccc1)C(=O)O", "CATEGORY LABEL": "inactive"}
{"COMPOUND": "COc1cc(C2C3=C(COC3=O)Oc3cc4c(cc32)OCO4)cc(OC)c1O (stereo not given)", "CATEGORY LABEL": "active"}
{"COMPOUND": "Cc1ccccc1C(=O)C1CCCCC1O (stereo not given)", "CATEGORY LABEL": "inactive"}
{"COMPOUND": "CC(C)Cc1cnc(CC(C)C)c(=O)[nH]1", "CATEGORY LABEL": "inactive"}
{"COMPOUND": "Clc1ccc(CCn2cncn2)c(Cl)c1", "CATEGORY LABEL": "inactive"}
{"COMPOUND": "COC(=O)C12OCC34C(CC5C(C)C6=CC(=O)OC6=CC5(C)C3C(O)C1O)OC(=O)C(O)C24 (stereo not given)", "CATEGORY LABEL": "active"}
{"COMPOUND": "CCC(=O)c1c(NOC2OCC(OC(C)=O)C(OC(C)=O)C2OC(C)=O)nc(OC)n(C)c1=O (stereo not given)", "CATEGORY LABEL": "inactive"}
{"COMPOUND": "Cc1ccc(NC(=S)C#N)c(C)c1", "CATEGORY LABEL": "inactive"}
{"COMPOUND": "O=C(c1ccc(Cl)cc1)c1cnc(Nc2ccccc2Cl)s1", "CATEGORY LABEL": "inactive"}
{"COMPOUND": "NC(CCOCCP(=O)(O)CCOCCC(N)C(=O)O)C(=O)O (stereo not given)", "CATEGORY LABEL": "inactive"}
{"COMPOUND": "CCCCCn1cnc2c1S(=O)(=O)N(C)C(NC(=O)c1ccccc1)=N2", "CATEGORY LABEL": "inactive"}
{"COMPOUND": "CC(C)(CN1CCCCC1)C(/C=C/c1ccc(Cl)cc1)=N\\NC(=O)N/N=C(/C=C/c1ccc(Cl)cc1)C(C)(C)CN1CCCCC1", "CATEGORY LABEL": "inactive"}
{"COMPOUND": "CC(=O)NC1C(CO)O[C@@H]2OC(C)(C)O[C@H]12 (stereo not given in full)", "CATEGORY LABEL": "inactive"}
{"COMPOUND": "COC(=O)C1CCC2(C)[C@H](CCC3O[C@]32C)[C@@]1(C)CC(=O)c1ccoc1 (stereo not given in full)", "CATEGORY LABEL": "inactive"}
{"COMPOUND": "Clc1ccc(-c2nn3c(COc4cccc(OCc5nnc6sc(-c7ccc(Cl)cc7)nn56)c4)nnc3s2)cc1", "CATEGORY LABEL": "inactive"}
{"COMPOUND": "COc1nc(C)nc2sc3c(c12)CCCC3", "CATEGORY LABEL": "inactive"}
{"COMPOUND": "NCCCCNCCCN1CC1", "CATEGORY LABEL": "inactive"}
{"COMPOUND": "COc1ccc(N2C(=O)C(=O)N(c3ccccc3[N+](=O)[O-])C2=S)cc1", "CATEGORY LABEL": "inactive"}
{"COMPOUND": "O=C1CS(=O)(=O)C(c2cccc(Oc3ccccc3)c2)N1c1cc(Cl)ccc1Cl (stereo not given)", "CATEGORY LABEL": "inactive"}
